- systemUnderTest: Voltage-gated inwardly rectifying potassium channel KCNH2 (Homo sapiens)
- Sequence (Q12809 whole entry): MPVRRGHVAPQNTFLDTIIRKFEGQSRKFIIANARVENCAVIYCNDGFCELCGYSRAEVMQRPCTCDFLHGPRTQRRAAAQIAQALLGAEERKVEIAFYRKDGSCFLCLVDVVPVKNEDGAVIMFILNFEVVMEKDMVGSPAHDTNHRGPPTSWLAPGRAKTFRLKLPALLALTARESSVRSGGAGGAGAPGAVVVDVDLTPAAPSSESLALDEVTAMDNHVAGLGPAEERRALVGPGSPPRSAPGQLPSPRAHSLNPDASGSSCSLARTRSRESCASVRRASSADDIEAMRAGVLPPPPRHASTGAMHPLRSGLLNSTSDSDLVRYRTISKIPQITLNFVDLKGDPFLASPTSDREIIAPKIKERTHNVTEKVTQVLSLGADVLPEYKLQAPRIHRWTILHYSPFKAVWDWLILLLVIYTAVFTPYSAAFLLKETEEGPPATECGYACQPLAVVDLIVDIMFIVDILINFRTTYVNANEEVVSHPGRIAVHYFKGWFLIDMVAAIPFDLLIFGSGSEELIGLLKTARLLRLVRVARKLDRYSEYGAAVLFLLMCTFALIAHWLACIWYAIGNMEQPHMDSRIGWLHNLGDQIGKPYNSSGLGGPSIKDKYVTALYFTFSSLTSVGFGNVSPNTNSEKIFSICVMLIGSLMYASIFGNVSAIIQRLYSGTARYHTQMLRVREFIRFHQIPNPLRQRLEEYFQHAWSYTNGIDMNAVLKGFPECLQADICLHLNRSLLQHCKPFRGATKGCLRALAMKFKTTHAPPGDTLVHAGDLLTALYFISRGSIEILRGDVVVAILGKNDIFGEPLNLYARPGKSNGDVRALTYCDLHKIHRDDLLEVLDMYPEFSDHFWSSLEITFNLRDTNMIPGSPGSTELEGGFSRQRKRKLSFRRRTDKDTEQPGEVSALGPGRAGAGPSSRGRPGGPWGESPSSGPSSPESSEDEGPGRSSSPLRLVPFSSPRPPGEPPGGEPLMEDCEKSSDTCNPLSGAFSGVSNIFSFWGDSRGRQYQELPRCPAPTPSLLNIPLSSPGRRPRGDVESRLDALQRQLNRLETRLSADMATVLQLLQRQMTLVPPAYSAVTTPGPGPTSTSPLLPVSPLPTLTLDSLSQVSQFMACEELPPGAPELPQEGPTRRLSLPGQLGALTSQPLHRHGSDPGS
- test: Inhibition of hERG assessed as inhibition constant by patch-clamp assay
As shown below, each of these compounds has a reported Ki value.
Give just the number in µM; leave the unit off.

CCNC(=O)c1ccc2c(C3CCN(CC4(O)CCCCC4)CC3)c(C)nn2c1 on Voltage-gated inwardly rectifying potassium channel KCNH2 (Homo sapiens) gives Ki = 4.64

###

As shown below, each of these compounds has a reported pIC50 value.
- systemUnderTest: YEATS domain-containing protein 4 (Homo sapiens)
- Sequence (O95619 whole entry, the tested form may be a part): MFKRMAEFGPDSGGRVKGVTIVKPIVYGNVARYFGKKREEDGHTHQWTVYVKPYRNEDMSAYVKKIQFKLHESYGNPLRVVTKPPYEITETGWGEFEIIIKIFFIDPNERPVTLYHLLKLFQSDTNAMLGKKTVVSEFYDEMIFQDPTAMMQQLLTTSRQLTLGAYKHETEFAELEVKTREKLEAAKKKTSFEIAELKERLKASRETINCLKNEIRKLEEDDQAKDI
- test: Inhibition of N-terminal nanoLuc-tagged YEATS4 in HEK293T cells co-transfected with C-terminal halo-tagged histone 3.3 incubated for 24 hrs in presence of SAHA by NanoBRET assay
- Type: cell-based
Kindly note that pIC50 refers to -log10 of the concentration in mol/L and answer with the value alone.

[
  {
    "itemSmiles": "CCNC(=O)c1ccc2c(c1)nc(C(F)F)n2[C@H]1CCN(CC2(O)CCCCC2)C[C@@H]1C",
    "pIC50": 6.14
  },
  {
    "itemSmiles": "CCNC(=O)c1ccc2c([C@H]3CCN(CC4(O)CCCCC4)C[C@@H]3C)c(C)nn2c1",
    "pIC50": 6.77
  },
  {
    "itemSmiles": "CCNC(=O)c1ccc2c(c1)nc(C)n2[C@H]1CCN(CC2(O)CCCCC2)C[C@@H]1C",
    "pIC50": 6.54
  }
]

Continue with the compound presented below.
Input CCNC(=O)c1ccc2c([C@H]3CCN(CC4(O)CCOCC4)C[C@@H]3C)c(C)nn2c1 . Output pIC50: 6.52

###

- test: Intrinsic clearance in human hepatocytes assessed per million cells
- Format: ADME, cell-based, Hepatocyte
- conditionInfo: read-out: CLH
Lab note: compare hepatocyte CLint against 3 µL/min/1e6 cells. Equal or greater, write condition met. Smaller, write condition not met.

Field: example entries. Status: answers known.
[
  {
    "molecule": "CCNC(=O)c1ccc2c(C3CCN(CC4(O)CCCCC4)CC3)c(C)nn2c1",
    "assignedLabel": "condition met"
  },
  {
    "molecule": "CCNC(=O)c1ccc2c(c1)nc(C(F)F)n2[C@H]1CCN(CC2(O)CCCCC2)C[C@@H]1C",
    "assignedLabel": "condition met"
  },
  {
    "molecule": "CCNC(=O)c1ccc2c([C@H]3CCN(CC4(O)CCOCC4)C[C@@H]3C)c(C)nn2c1",
    "assignedLabel": "condition not met"
  },
  {
    "molecule": "CCNC(=O)c1ccc2c(C3CCN(CC4(O)C5CC6CC(C5)CC4C6)CC3)c(C)nn2c1 (centres undefined)",
    "assignedLabel": "condition met"
  },
  {
    "molecule": "CCNC(=O)c1ccc2c(c1)nc(-c1cccn(C)c1=O)n2[C@H]1CCN(CC2(O)CCCCC2)C[C@@H]1C",
    "assignedLabel": "condition not met"
  },
  {
    "molecule": "CCNC(=O)c1ccc2c(c1)[nH]c(=O)n2C1CCN(CC2(O)CCCCC2)CC1",
    "assignedLabel": "condition met"
  }
]

# bool: hepatocyte CLint of CCNC(=O)c1ccc2c(c1)nc(C)n2C1CCN(CC2(O)CCCCC2)CC1 >= 3 µL/min/1e6 cells condition not met

# bool: hepatocyte CLint of COC1(CN2CC[C@H](c3c(C)nn4cc(C(=O)NCC5CC5)ccc34)[C@@H](C)C2)CCOCC1 >= 3 µL/min/1e6 cells condition met

# bool: hepatocyte CLint of Cc1nn2cc(C(=O)NCC3CC3)ccc2c1[C@H]1CCN(CC2(O)CCOCC2)C[C@@H]1C >= 3 µL/min/1e6 cells condition not met
